pKd overview
experimental-system: T1, PDZD2_2, O15018
T1 sequence (O15018 329-429, limits assumed, looked up): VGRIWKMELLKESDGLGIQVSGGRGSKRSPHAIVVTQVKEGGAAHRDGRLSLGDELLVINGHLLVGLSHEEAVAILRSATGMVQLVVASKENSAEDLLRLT
protocol-description: holdup assay
Parameters: key: below the threshold = too weak to quantify, mostly under pKd 3.1 to 4
run-parameters: plain residues with an end cap or a label only (N-terminal biotin on a linker: ttds)
The response must contain the number and no unit.

[
  {
    "binder": "IDNDTESTAL [ARHGAP17, Q68EM7]",
    "result-type": "pKd",
    "quantitative-result": 4.11
  }
]

Alright, here's another binder for you.
query: # input binder: RSLEEEESQL [GRASP, Q7Z6J2] ; wanted: its pKd
result: 3.98
